Biological target: T1, 4H3041-bH
T1 chain: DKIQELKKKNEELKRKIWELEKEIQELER
Assay: two-hybrid library CCNG1;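 further: natural log of median RNA to DNA barcode read ratio; higher means stronger binding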
Mark MET only when interaction score stays strictly below 0.6. Values equal to the cut-off are NOT MET.

[[record]]
binder = "DKIQELKKEIEELERENWELKKEIQELER [4H2585-bH]"
class = "MET"

[[record]]
binder = "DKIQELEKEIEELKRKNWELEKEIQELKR [4H2162-bH]"
class = "NOT MET"


Data request: Please indicate whether the reported interaction score of DKIQELKKKIEELERKIWELKKENQELER [4H2859-bH] is strictly below 0.6.
Data returned: NOT MET

Data request: How about DEIQELEKKIEELEREIWELEKKNQELKR [4H264-bH] ?
Data returned: NOT MET

Data request: Moving on to DKIQELKKKIEELKRKNWELEKENQELER [4H2931-bH]
Data returned: MET

Data request: Please answer likewise for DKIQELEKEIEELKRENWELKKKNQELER [4H2143-bH]
Data returned: MET

Data request: Please do the same for DKIAQLKQENAELEQEIAELKWEIAQLEQ [4H2697-bA] as well.
Data returned: NOT MET
